TESTED_SYSTEM: HLA-A24.02
ASSAY_NAME: Class I MHC peptide binding affinity (displacement of radiolabeled reference peptide)
Design: species or system human
TEST_CONDITIONS: allele A24.02; read-out: Observed Affinity (IC50; (nM))
Where a SMILES comes first, the peptide text is derived from it.
Returns: string. Value is T if measured IC50 is below 700 nM, and F if it is greater than or equal to it.

Consider the worked cases shown below.
{"MOLECULE": "CC[C@H](C)[C@H](NC(=O)[C@H](CCCCN)NC(=O)[C@H](CO)NC(=O)[C@H](CCC(=O)O)NC(=O)[C@H](C)NC(=O)[C@H](CCCCN)NC(=O)[C@H](CC(C)C)NC(=O)[C@H](Cc1ccccc1)NC(=O)[C@@H](N)CCSC)C(=O)O (H-MFLKAESKI-OH; N-terminus and C-terminus assumed)", "CATEGORY": "T"}
{"MOLECULE": "CSCC[C@H](NC(=O)[C@H](CC(C)C)NC(=O)[C@H](CCC(N)=O)NC(=O)[C@@H](N)CCSC)C(=O)N1CCC[C@H]1C(=O)N[C@@H](Cc1ccccc1)C(=O)NCC(=O)N[C@@H](CS)C(=O)N[C@@H](CC(C)C)C(=O)N[C@@H](CC(C)C)C(=O)O", "CATEGORY": "F"}
{"MOLECULE": "CC[C@H](C)[C@H](NC(=O)[C@@H](NC(=O)[C@H](CC(C)C)NC(=O)[C@@H](NC(=O)[C@@H]1CCCN1C(=O)[C@H](CCCNC(=N)N)NC(=O)[C@H](Cc1c[nH]c2ccccc12)NC(=O)[C@H](CC(N)=O)NC(=O)[C@@H](N)CCSC)[C@@H](C)CC)[C@@H](C)O)C(=O)O (H-MNWRPILTI-OH; N-terminus and C-terminus assumed)", "CATEGORY": "F"}
{"MOLECULE": "CC[C@H](C)[C@H](NC(=O)[C@H](Cc1ccc(O)cc1)NC(=O)[C@H](CS)NC(=O)[C@H](Cc1ccccc1)NC(=O)[C@@H](N)Cc1ccccc1)C(=O)N[C@@H](CC(C)C)C(=O)N[C@@H](CC(N)=O)C(=O)N[C@H](C(=O)N[C@@H](CCSC)C(=O)N[C@@H](Cc1ccccc1)C(=O)O)[C@@H](C)O (H-FFCYILNTMF-OH; N-terminus and C-terminus assumed)", "CATEGORY": "T"}
{"MOLECULE": "CC(C)C[C@H](NC(=O)[C@H](CC(C)C)NC(=O)[C@H](CC(C)C)NC(=O)[C@H](CC(=O)O)NC(=O)[C@H](CS)NC(=O)[C@H](CC(C)C)NC(=O)[C@@H]1CCCN1C(=O)[C@@H](NC(=O)[C@@H](N)C(C)C)C(C)C)C(=O)O (H-VVPLCDLLL-OH; N-terminus and C-terminus assumed)", "CATEGORY": "F"}

## Task Please check: IC50 for CSCC[C@H](NC(=O)[C@H](CCC(=O)O)NC(=O)[C@H](CC(C)C)NC(=O)[C@H](CC(C)C)NC(=O)[C@H](CC(C)C)NC(=O)CNC(=O)[C@H](Cc1ccc(O)cc1)NC(=O)[C@H](CC(C)C)NC(=O)[C@@H]1CCCN1)C(=O)N[C@@H](CC(C)C)C(=O)O (H-PLYGLLLEML-OH; N-terminus and C-terminus assumed) , strictly under 700 nM or not?
## Result T

## Task Same question for CC[C@H](C)[C@H](NC(=O)[C@@H]1CCCN1C(=O)[C@H](Cc1ccccc1)NC(=O)[C@H](Cc1ccccc1)NC(=O)[C@H](CCCNC(=N)N)NC(=O)[C@H](C)NC(=O)[C@H](CC(C)C)NC(=O)[C@H](CCC(N)=O)NC(=O)[C@@H](N)[C@@H](C)O)C(=O)O please.
## Result T

## Task Same question for CC(C)C[C@H](NC(=O)[C@@H](NC(=O)[C@H](CO)NC(=O)[C@@H]1CCCN1C(=O)[C@H](CC(C)C)NC(=O)[C@H](Cc1ccccc1)NC(=O)[C@@H](NC(=O)[C@H](Cc1ccc(O)cc1)NC(=O)[C@@H](NC(=O)CN)C(C)C)[C@@H](C)O)[C@@H](C)O)C(=O)O (H-GVYTFLPSTL-OH; N-terminus and C-terminus assumed) please.
## Result F

## Task Same question for CC(C)C[C@H](NC(=O)[C@H](CC(C)C)NC(=O)[C@H](CC(C)C)NC(=O)CNC(=O)[C@H](Cc1ccc(O)cc1)NC(=O)[C@H](CC(C)C)NC(=O)[C@@H]1CCCN1C(=O)[C@@H](NC(=O)[C@@H](N)C(C)C)C(C)C)C(=O)O please.
## Result T

## Task Same question for CC[C@H](C)[C@H](NC(=O)[C@@H](NC(=O)[C@@H](NC(=O)[C@H](CC(C)C)NC(=O)[C@@H](NC(=O)[C@@H]1CCCN1C(=O)[C@H](CCCNC(=N)N)NC(=O)[C@H](Cc1c[nH]c2ccccc12)NC(=O)[C@H](CC(N)=O)NC(=O)[C@@H](N)CCSC)[C@@H](C)CC)[C@@H](C)O)[C@@H](C)CC)C(=O)O (H-MNWRPILTII-OH; N-terminus and C-terminus assumed) please.
## Result F

* * *

TESTED_SYSTEM: HLA-A02.01 (Homo sapiens, UniProt P04439, D140Y/D185E/D98H/E176V/E277Q/G131W/G231S/I119V/I121R/I166T/I218V/L300P/L318F/N151K/N90K/P208A/P217A/Q86G/Q94H/R138H/R169H/T345S)
ASSAY_NAME: Class I MHC peptide binding affinity (displacement of radiolabeled reference peptide)
TEST_CONDITIONS: allele A02.01; read-out: Observed Affinity (IC50; (nM))
Where a SMILES comes first, the peptide text is derived from it.
READOUT_TYPE: log10 of IC50 (log10 of the value in nM)
Note: values are log10 of IC50 expressed in nM.

Would you please look over these solved cases?
{"MOLECULE": "CC(C)C[C@H](NC(=O)[C@H](CC(C)C)NC(=O)[C@H](CC(C)C)NC(=O)[C@H](CC(=O)O)NC(=O)[C@H](CC(N)=O)NC(=O)[C@H](CC(C)C)NC(=O)[C@@H]1CCCN1C(=O)[C@@H](NC(=O)[C@@H](NC(=O)[C@@H](N)CC(N)=O)C(C)C)C(C)C)C(=O)O (H-NVVPLNDLLL-OH; N-terminus and C-terminus assumed)", "READOUT_TYPE": "log10 of IC50", "ASSAY_VALUE": 3.62}
{"MOLECULE": "CSCC[C@H](N)C(=O)N[C@@H](CC(C)C)C(=O)N[C@H](C(=O)NCC(=O)N1CCC[C@H]1C(=O)N1CCC[C@H]1C(=O)N[C@@H](C)C(=O)N[C@@H](CCCNC(=N)N)C(=O)N[C@H](C(=O)O)C(C)C)[C@@H](C)O (H-MLTGPPARV-OH; N-terminus and C-terminus assumed)", "READOUT_TYPE": "log10 of IC50", "ASSAY_VALUE": 1.03}
{"MOLECULE": "CC(C)C[C@H](NC(=O)[C@H](C)N)C(=O)N[C@@H](CO)C(=O)N[C@@H](CCC(=O)O)C(=O)N[C@@H](Cc1c[nH]cn1)C(=O)N[C@@H](CS)C(=O)N1CCC[C@H]1C(=O)N[C@H](C(=O)N[C@H](C(=O)O)[C@@H](C)O)[C@@H](C)O (H-ALSEHCPTT-OH; N-terminus and C-terminus assumed)", "READOUT_TYPE": "log10 of IC50", "ASSAY_VALUE": 1.90}
{"MOLECULE": "CSCC[C@H](NC(=O)[C@H](CCC(=O)O)NC(=O)[C@H](CC(C)C)NC(=O)[C@H](CC(C)C)NC(=O)[C@H](CC(C)C)NC(=O)[C@H](CC(=O)O)NC(=O)[C@H](CO)NC(=O)[C@H](CC(C)C)NC(=O)[C@@H]1CCCN1)C(=O)O (H-PLSDLLLEM-OH; N-terminus and C-terminus assumed)", "READOUT_TYPE": "log10 of IC50", "ASSAY_VALUE": 2.61}
{"MOLECULE": "CC(C)C[C@H](NC(=O)[C@H](CCCNC(=N)N)NC(=O)[C@@H](NC(=O)[C@@H](N)CC(C)C)C(C)C)C(=O)N[C@@H](CO)C(=O)N[C@@H](CO)C(=O)N[C@@H](CS)C(=O)N[C@H](C(=O)N1CCC[C@H]1C(=O)N[C@H](C(=O)O)C(C)C)C(C)C (H-LVRLSSCVPV-OH; N-terminus and C-terminus assumed)", "READOUT_TYPE": "log10 of IC50", "ASSAY_VALUE": 3.09}
{"MOLECULE": "CC(C)C[C@H](NC(=O)[C@H](C)N)C(=O)N[C@@H](CC(N)=O)C(=O)N[C@@H](CO)C(=O)N[C@@H](CCC(=O)O)C(=O)N[C@@H](C)C(=O)N[C@@H](CC(C)C)C(=O)N[C@@H](CO)C(=O)N[C@H](C(=O)N[C@H](C(=O)O)C(C)C)C(C)C", "READOUT_TYPE": "log10 of IC50", "ASSAY_VALUE": 1.18}

## Task // lookup log10 of IC50 for CSCC[C@H](NC(=O)[C@H](CCCCN)NC(=O)[C@H](CCCNC(=N)N)NC(=O)[C@H](CC(C)C)NC(=O)[C@H](CC(N)=O)NC(=O)[C@H](CC(C)C)NC(=O)[C@H](CCCNC(=N)N)NC(=O)[C@H](CC(C)C)NC(=O)[C@H](CC(C)C)NC(=O)[C@@H](N)CCSC)C(=O)O
## Result 3.40

Taken from patent US20220282217A1.
